Test: chemical genetic growth profiling, strain panel (AID 1159580);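 further: tested at 20 µM; growth read once vehicle control cultures reached saturation at 30 °C; 1 = growth at the plate median or of vehicle wells; lower values mean less growth of the strain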
Assay context: S. cerevisiae deletion strains, growth OD, locus YOR316C, strain cot1
In all, about 5,500 compounds went through this assay and about 2,000 (36%) were called active. Not shown: some 18% with an inconclusive outcome. No stated cut-off is given here; in the data, active means normalized growth mostly below about 0.91 (no sharp cut-off); inconclusive means no clear call, values can overlap the other calls; inactive means mostly above about 0.92. Some of the results follow.
Labels: active, inactive

Compound	Label class
CN1CCC(OC(c2ccccc2)c2ccccc2)CC1	inactive
CC[C@@]1(O)C[C@H](O[C@H]2C[C@H](N(C)C)[C@H](O)[C@H](C)O2)c2c(cc3c(c2O)C(=O)c2c(O)ccc(O)c2C3=O)[C@H]1C(=O)OC	active
CCCCCCC(C)OC(=O)COc1cc(Cl)c(Cl)cc1Cl (centres undefined)	inactive
C[n+]1c2cc(N)ccc2cc2ccc(N)cc21	inactive
O=C(O[C@@H]1Cc2c(O)cc(O)cc2O[C@@H]1c1cc(O)c(O)c(O)c1)c1cc(O)c(O)c(O)c1	inactive
CC(=O)Oc1cc(OC(C)=O)c2c(c1)O[C@H](c1ccc(OC(C)=O)c(OC(C)=O)c1)[C@H](OC(C)=O)C2	inactive
O=C(Oc1cc(O)cc2c1C[C@@H](OC(=O)c1cc(O)c(O)c(O)c1)[C@@H](c1cc(O)c(O)c(O)c1)O2)c1cc(O)c(O)c(O)c1	inactive
O=C(Oc1cc(OC(=O)c2ccccc2)c2c(c1)O[C@H](c1ccc(OC(=O)c3ccccc3)c(OC(=O)c3ccccc3)c1)[C@@H](OC(=O)c1ccccc1)C2)c1ccccc1	inactive
O=C1NCC2(CCN(CCc3ccccc3)CC2)O1	inactive
CC[C@H]1OC(=O)[C@H](C)[C@@H](O[C@H]2C[C@@](C)(OC)[C@@H](O)[C@H](C)O2)[C@H](C)[C@@H](O[C@@H]2O[C@H](C)C[C@H](N(C)C)[C@H]2O)[C@](C)(OC)C[C@@H](C)C(=O)[C@H](C)[C@@H](O)[C@]1(C)O	inactive
CC[C@@]1(O)C[C@H](O)c2c(cc3c(c2O)C(=O)c2c(O)ccc(O)c2C3=O)[C@H]1C(=O)OC	inactive
CN(C)CCOC(c1ccc(Cl)cc1)c1ccccn1 (centres undefined)	inactive
C[C@]12CCC(=O)C=C1C=CC1C2CC[C@@]2(C)C1CC[C@@]2(O)CCC(=O)O (some centres undefined)	inactive
Cc1ccccc1C(OCCN(C)C)c1ccccc1 (centres undefined)	inactive
C[C@@H]1CC(Cl)CC[C@H]1C(=O)OC(C)(C)C (some centres undefined)	inactive
NCCCS(=O)(=O)O	inactive
Cc1ncc(CNC(=O)N(CCCl)N=O)c(N)n1	inactive
COc1ccc(OC)c(C(O)CNC(=O)CN)c1 (centres undefined)	inactive
CC[C@@]1(O)C[C@H](O[C@H]2C[C@H](N(C)C)[C@H](O)[C@H](C)O2)c2c(cc3c(c2O)C(=O)c2c(O)cccc2C3=O)[C@H]1C(=O)OC	active

###

Test: chemical genetic growth profiling, strain panel (AID 1159580)
Assay context: S. cerevisiae deletion strains, growth OD, locus YBR231C, strain swc5, active compounds read low
In all, about 5,500 compounds went through this assay and about 2,000 (36%) were called active. Not shown: some 18% with an inconclusive outcome. Some of the results follow.
Measured normalized growth accompanies every entry in the list below.

Compound	normalized growth
COC(=O)C1=COC(OC2OC(CO)C(O)C(O)C2O)C2C(C)CC(=O)C12 (stereo unspecified)	1.04
CCN(CC)Cc1ccc(Nc2ccnc3cc(Cl)ccc23)cc1O	0.989
COc1ccc(OC)c(C(O)CNC(=O)CN)c1 (stereo unspecified)	1
COc1ccc(C2CNC(=O)C2)cc1OC1CCCC1 (stereo unspecified)	1.02
CC1(O)CC2C(CC1O)C2(C)C (stereo unspecified)	0.993
COc1cc(CNC(=O)CCCC/C=C/C(C)C)ccc1O	0.981

###

Test: chemical genetic growth profiling, strain panel (AID 1159580)
Assay context: S. cerevisiae deletion strains, growth OD, locus YDL005C, strain med2, active compounds read low
Screen size: about 5,500 compounds; about 2,000 (36%) were called active. Roughly 18% stayed inconclusive and do not appear here. The list shows a part of the results.
Measured normalized growth accompanies every entry in the list below.

Molecule	normalized growth
O=S(=O)(O)CCS	0.949
COC(=O)C1=COC(OC2OC(CO)C(O)C(O)C2O)C2C(C)CC(=O)C12 (configuration not stated)	1.04
COc1ccc2c(c1)OC1(O)COc3cc(OC)c(OC)cc3C1=C2 (configuration not stated)	0.978
C=C[C@@](C)(O)CCC1C(=C)C[C@H](OC(C)=O)C2C(C)(C)CCCC12C (some centres not stated)	1.04
O=C(O)c1cc2cc(F)ccc2[nH]1	0.97
CNCCC(Oc1ccc(C(F)(F)F)cc1)c1ccccc1 (configuration not stated)	0.99
CC(C)NCC(O)COc1cccc2[nH]ccc12 (configuration not stated)	0.988
O=S(=O)(O)c1cc(N=C=S)ccc1/C=C/c1ccc(N=C=S)cc1S(=O)(=O)O	1.03
COc1ccc(C2CNC(=O)C2)cc1OC1CCCC1 (configuration not stated)	0.996
CCN(CC)C(=O)N1CCN(C)CC1	0.963
C=C[C@@](C)(O)CCC1C(=C)C[C@H](O)C2C(C)(C)CCCC12C (some centres not stated)	0.976
NCCCS(=O)(=O)O	1.05

###

Test: chemical genetic growth profiling, strain panel (AID 1159580);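 further: tested at 20 µM; growth read once vehicle control cultures reached saturation at 30 °C; 1 = growth at the plate median or of vehicle wells; lower values mean less growth of the strain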
Assay context: S. cerevisiae deletion strains, growth OD, locus YPR167C, strain met16, active compounds read low
About 2,000 (36%) of roughly 5,500 compounds were called active. Not shown: some 18% with an inconclusive outcome. The list shows a part of the results.

Compound	normalized growth
COC(=O)[C@@H]1OC(=O)C2OC23[C@@]1(C)CCC1[C@]2(C)C(C[C@H](O)[C@]13C)C(C)(C)[C@H](OC(C)=O)C[C@@H]2OC(C)=O (some centres undefined)	1 (inactive)
CC[C@@]1(O)C[C@H](O[C@H]2C[C@H](N(C)C)[C@H](O)[C@H](C)O2)c2c(cc3c(c2O)C(=O)c2c(O)ccc(O)c2C3=O)[C@H]1C(=O)OC	0.125 (active)
Cc1[nH]c2ccccc2c1CN(C)C	0.988 (inactive)
O=C1CCC(N2C(=O)c3ccccc3C2=O)C(=O)N1 (centres undefined)	0.99 (inactive)
COC(=O)c1cc(=O)c(O)c2c(O)c(O)ccc2c1	0.802 (active)
CCC1(O)CC(OC2CC(N(C)C)C(OC3CC(O)C(OC4CCC(=O)C(C)O4)C(C)O3)C(C)O2)c2c(cc3c(c2O)C(=O)c2c(O)cccc2C3=O)C1C(=O)OC (centres undefined)	1 (inactive)
COc1ccc(OC)c(C(O)CNC(=O)CN)c1 (centres undefined)	0.98 (inactive)
Cn1c(=O)c2c(ncn2CC(O)CO)n(C)c1=O (centres undefined)	0.968 (inactive)
COc1ccc2c(c1)OC1(O)COc3cc(OC)c(OC)cc3C1=C2 (centres undefined)	0.984 (inactive)

###

Test: chemical genetic growth profiling, strain panel (AID 1159580);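 further: tested at 20 µM; growth read once vehicle control cultures reached saturation at 30 °C; 1 = growth at the plate median or of vehicle wells; lower values mean less growth of the strain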
Assay context: S. cerevisiae deletion strains, growth OD, locus YGR252W, strain gcn5, active compounds read low
Screen size: about 5,500 compounds; about 2,000 (36%) were called active. Not shown: some 18% with an inconclusive outcome. This is one part of the list.
Recorded metric: normalized growth

1) CC1(C)S[C@@H]2[C@H](NC(=O)[C@H](N)c3ccccc3)C(=O)N2[C@H]1C(=O)O 1.03 (inactive)
2) C#CCN(C)Cc1ccccc1 0.965 (inactive)
3) COC(=O)c1cc(=O)c(O)c2c(O)c(O)ccc2c1 0.948 (inactive)

###

Test: chemical genetic growth profiling, strain panel (AID 1159580);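 further: tested at 20 µM; growth read once vehicle control cultures reached saturation at 30 °C; 1 = growth at the plate median or of vehicle wells; lower values mean less growth of the strain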
Assay context: S. cerevisiae deletion strains, growth OD, locus YOR069W, strain VPS5
Hit rate of the full screen: of about 5,500 compounds, about 2,000 (36%) were called active. About 18% were inconclusive and are not listed. Rule as the data show it: active = normalized growth mostly below about 0.91 (no sharp cut-off); inconclusive = no clear call, values can overlap the other calls; inactive = mostly above about 0.92. This is one part of the list.
Labels: true (1) = active, false (0) = inactive

Compound	Label class
CC[C@@H](C(=O)C(C)[C@@H](O)[C@H](C)CCc1ccc(C)c(O)c1C(=O)O)C1OC(CC)(C2CC[C@](O)(CC)[C@H](C)O2)C[C@@H]1C (stereo partly specified)	false (0)
O=S(=O)(O)CCS	false (0)
CCCCCCCCC(=O)NCc1ccc(O)c(OC)c1	false (0)
CN1C2CCC1CC(OC(c1ccccc1)c1ccccc1N)C2 (stereo unspecified)	false (0)
CN1C2C[C@H](OC(=O)[C@H](CO)c3ccccc3)C[C@H]1[C@@H](O)C2	false (0)
COc1ccc(CN(CCN(C)C)c2ccccn2)cc1	false (0)
C=CCc1ccc(OC(=O)c2ccccc2)c(OC)c1	false (0)
Cc1ncc(CNC(=O)N(CCCl)N=O)c(N)n1	false (0)
O=C(O[C@@H]1Cc2c(O)cc(O)cc2O[C@@H]1c1cc(O)c(O)c(O)c1)c1cc(O)c(O)c(O)c1	true (1)
O=C1CCC(N2C(=O)c3ccccc3C2=O)C(=O)N1 (stereo unspecified)	false (0)
CCN1CCCC(OC(=O)C(c2ccccc2)c2ccccc2)C1 (stereo unspecified)	false (0)
O=C(O[C@@H]1Cc2c(O)cc(O)cc2O[C@@H]1c1ccc(O)c(O)c1)c1cc(O)c(O)c(O)c1	false (0)
CN1CC(CO)=C[C@@H]2c3cccc4[nH]cc(c34)C[C@H]21	false (0)
CC(=O)Oc1cc(OC(C)=O)c2c(c1)O[C@H](c1ccc(OC(C)=O)c(OC(C)=O)c1)[C@H](OC(C)=O)C2	false (0)
c1ccc2c(c1)CCCC2C1=NCCN1 (stereo unspecified)	false (0)
CCN(CC)C(=O)N1CCN(C)CC1	false (0)
NCCC(O)C(=O)NC1CC(N)C(OC2OC(CN)C(O)C(O)C2N)C(OC2OC(CO)C(O)C2O)C1O (stereo unspecified)	false (0)
CNCCC(Oc1ccc(C(F)(F)F)cc1)c1ccccc1 (stereo unspecified)	false (0)
COC(=O)/C=C/C(C)=C/C=C/C(C)=C/C=C/C=C(C)/C=C/C=C(C)/C=C/C(=O)O	false (0)
O=C(Oc1cc(O)cc2c1C[C@@H](OC(=O)c1cc(O)c(O)c(O)c1)[C@@H](c1cc(O)c(O)c(O)c1)O2)c1cc(O)c(O)c(O)c1	true (1)
C=CCc1ccc(O)c(OC)c1	false (0)
